assayedTarget: Tie-2 (Homo sapiens, UniProt Q02763)
Construct: The kinase domain of the enzyme was purified to homogeneity from a baculovirus expression system; made in house
Sequence (Q02763 824-1096 limits assumed, species assumed): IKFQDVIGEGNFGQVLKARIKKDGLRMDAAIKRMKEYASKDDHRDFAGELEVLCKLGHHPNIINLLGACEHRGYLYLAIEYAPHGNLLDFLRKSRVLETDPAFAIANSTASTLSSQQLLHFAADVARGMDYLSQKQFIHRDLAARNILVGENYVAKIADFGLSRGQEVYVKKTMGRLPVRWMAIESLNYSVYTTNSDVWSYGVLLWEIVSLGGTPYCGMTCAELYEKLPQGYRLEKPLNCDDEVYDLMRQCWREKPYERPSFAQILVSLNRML
method: Tie-2 substrate phosphorylation assay
Assay type: biochemical
valueKind: IC50

[in] Form field: IC50 recorded for CCN(CC)CCS(=O)(=O)c1ccc(N/C=C2\C(=O)Nc3ccc4ncccc4c32)cc1 with Tie-2 (Homo sapiens, UniProt Q02763) (enter value)
[out] > 100 nM

----------
Quick record: IC50, CDK2 (Homo sapiens, UniProt P24941).

[in] Form field: reported IC50 of O=C1Nc2ccc3ncccc3c2/C1=C/Nc1ccc(CCO)cc1 [Example 32]
[out] 0.051 to 0.1 µM

[in] Also check O=C1Nc2ccc3ncccc3c2/C1=C/Nc1ccc(Cc2ccncc2)cc1 [Example 30]
[out] 0.011 to 0.05 µM

[in] Also check Cc1cc(=O)[nH]n1-c1ccc(N/C=C2\C(=O)Nc3ccc4ncsc4c32)cc1 [Example 55]
[out] 0.011 to 0.05 µM

[in] Also check O=C1Nc2ccc3ncccc3c2/C1=C/Nc1ccc(N2CCOCC2)cc1 [Example 29]
[out] > 0.1 µM

[in] Also check NC(=O)c1ccc(N/C=C2\C(=O)Nc3ccc4ncsc4c32)cc1 [Example 24]
[out] 0.051 to 0.1 µM
